system: E. cloacae Nek 39; assay: in vitro antibacterial activity, agar plate dilution method (MIC); format: cell-based; settings: Enterobacter cloacae, NEK39, 16 h; *E. cloacae Nek 39, lactamase-producing strain; 10^6 CFU/ml; read-out: Minimum Inhibitory Concentration (MIC)
Where a name gives a salt, the structure may show the parent alone.
The following molecules are shown together with reported MIC values.
API: value field is a number in µg/mL; no unit string.

Take a look at these entries with their results.
CC(C)(O/N=C(\C(=O)N[C@@H]1C(=O)N2C(C(=O)O)=C(CSc3nnc(-c4ccccc4)o3)CS[C@H]12)c1csc(N)n1)C(=O)O [compound 3, reference compound] | 25
CO/N=C(\C(=O)N[C@@H]1C(=O)N2C(C(=O)O)=C(CSc3nc(-c4ccc(OC)c(OC)c4)cs3)CS[C@H]12)c1csc(N)n1 [compound 13, trifluoroacetate, reference compound] | 25
CC(C)(O/N=C(\C(=O)N[C@@H]1C(=O)N2C(C(=O)O)=C(CSc3ncc(-c4ccc(O)cc4)o3)CS[C@H]12)c1csc(N)n1)C(=O)O [compound 24, reference compound] | 25
CC(C)(O/N=C(\C(=O)N[C@@H]1C(=O)N2C(C(=O)O)=C(CSc3ncc(-c4ccccc4)o3)CS[C@H]12)c1csc(N)n1)C(=O)O [compound 22, reference compound] | 25

Name the recorded MIC for CC(C)(O/N=C(\C(=O)N[C@@H]1C(=O)N2C(C(=O)O)=C(CSc3nnc(-c4ccc(O)cc4)s3)CS[C@H]12)c1csc(N)n1)C(=O)O [compound 8, reference compound] .
25

# MIC lookup, item CO/N=C(\C(=O)N[C@@H]1C(=O)N2C(C(=O)O)=C(COC(C)=O)CS[C@H]12)c1csc(N)n1 [cefotaxime, reference compound]
1.56

----------
Reported MIC values for a set of compounds
system: Ps. aeruginosa AK 109; experiment: in vitro antibacterial activity, agar plate dilution method (MIC); type: cell-based, Pseudomonas aeruginosa; details: Pseudomonas aeruginosa, AK109, 16 h, read-out: Minimum Inhibitory Concentration (MIC)
State just the number; it will be interpreted in µg/mL.

As a guide, the following entries are already answered.
CC(C)(O/N=C(\C(=O)N[C@@H]1C(=O)N2C(C(=O)O)=C(CSc3nnc(-c4ccc(O)cc4)o3)CS[C@H]12)c1csc(N)n1)C(=O)O [compound 4, reference compound] | 12.5
CC(C)(O/N=C(\C(=O)N[C@@H]1C(=O)N2C(C(=O)[O-])=C(C[n+]3ccccc3)CS[C@H]12)c1csc(N)n1)C(=O)O [ceftazidime, reference compound] | 0.78
CC(C)(ON=C(C(=O)NC1C(=O)N2C(C(=O)O)=C(CSc3nc(-c4ccc(O)c(O)c4)cs3)CSC12)c1csc(N)n1)C(=O)O (centres unmarked) | 0.39
CC(C)(O/N=C(\C(=O)N[C@@H]1C(=O)N2C(C(=O)O)=C(CSc3nc(C(=O)O)c(-c4ccccc4)s3)CS[C@H]12)c1csc(N)n1)C(=O)O [compound 14, reference compound] | 12.5

Next, consider the following compound.
Any idea what its MIC is? The compound is "CCON=C(C(=O)N[C@@H]1C(=O)N2C(C(=O)[O-])=C(CSc3nc(-c4ccc(O)c(O)c4)cs3)CS[C@H]12)c1csc(N)n1.[Na+]"
0.39

----------
Below, each entry is listed with its recorded MIC.
test system: K. pneumoniae No. 42; test: in vitro antibacterial activity, agar plate dilution method (MIC); type: cell-based; details: Klebsiella pneumoniae, NO.42, 16 h, read-out: Minimum Inhibitory Concentration (MIC), *K. pneumoniae No. 42, lactamase-producing strain; 10^6 CFU/ml
Where a name gives a salt, the structure may show the parent alone.
Your answer should be a plain number; it is taken to be in µg/mL.

Known MIC results, listed for orientation:
Nc1nc(/C(=N/OC(C(=O)O)c2ccc(O)c(O)c2)C(=O)N[C@@H]2C(=O)N3C(C(=O)O)=C(CSc4ncc(-c5ccc(O)c(O)c5)o4)CS[C@H]23)cs1 (stereo partly shown) | 0.2
CC(C)(O/N=C(\C(=O)N[C@@H]1C(=O)N2C(C(=O)[O-])=C(C[n+]3ccccc3)CS[C@H]12)c1csc(N)n1)C(=O)O [ceftazidime, reference compound] | 0.39

Look up MIC: "CCON=C(C(=O)N[C@@H]1C(=O)N2C(C(=O)[O-])=C(CSc3nc(-c4ccc(O)c(O)c4)cs3)CS[C@H]12)c1csc(N)n1.[Na+]"
0.05

Give the measured MIC of "Nc1nc(/C(=N/OCC(=O)O)C(=O)N[C@@H]2C(=O)N3C(C(=O)O)=C(CSc4nnc(-c5ccc(O)c(O)c5)o4)CS[C@H]23)cs1" .
0.025

// lookup MIC for "CCO/N=C(\C(=O)N[C@@H]1C(=O)N2C(C(=O)O)=C(CSc3nnc(-c4ccc(O)c(O)c4)o3)CS[C@H]12)c1csc(N)n1"
0.05

Reported MIC for "Nc1nc(/C(=N/OCc2ccccc2)C(=O)N[C@@H]2C(=O)N3C(C(=O)O)=C(CSc4nnc(-c5ccc(O)c(O)c5)o4)CS[C@H]23)cs1" : what is it?
0.05

Look at this compound and give its reported MIC. CC(C)(O/N=C(\C(=O)N[C@@H]1C(=O)N2C(C(=O)O)=C(CSc3nnc(-c4ccc(O)cc4)s3)CS[C@H]12)c1csc(N)n1)C(=O)O [compound 8, reference compound]
3.12

So what does the record say about MIC for CC(C)(O/N=C(\C(=O)N[C@@H]1C(=O)N2C(C(=O)O)=C(CSc3ncc(-c4ccccc4)o3)CS[C@H]12)c1csc(N)n1)C(=O)O [compound 22, reference compound] ?
12.5

Which measured MIC value corresponds to CC(C)(ON=C(C(=O)NC1C(=O)N2C(C(=O)O)=C(CSc3nc(-c4ccc(O)c(O)c4)cs3)CSC12)c1csc(N)n1)C(=O)O (stereo not shown) ?
0.1

Recorded MIC of CC(C)(O/N=C(\C(=O)N[C@@H]1C(=O)N2C(C(=O)O)=C(CSc3nc(-c4ccc(O)cc4)c(CC(=O)O)s3)CS[C@H]12)c1csc(N)n1)C(=O)O [compound 19, reference compound] , please.
1.56

Using the record for CO/N=C(\C(=O)N[C@@H]1C(=O)N2C(C(=O)O)=C(CSc3ncc(-c4ccc(O)cc4)o3)CS[C@H]12)c1csc(N)n1 [compound 23, reference compound] , report its MIC.
3.12

Requested read-out: MIC. Entry: CO/N=C(\C(=O)N[C@@H]1C(=O)N2C(C(=O)O)=C(CSc3nc(-c4ccc(OC)c(OC)c4)cs3)CS[C@H]12)c1csc(N)n1 [compound 13, trifluoroacetate, reference compound]
6.25

Returns the measured MIC for the input compound. Input: CC(C)(O/N=C(\C(=O)N[C@@H]1C(=O)N2C(C(=O)O)=C(CSc3nc(-c4ccccc4)c(CC(=O)O)s3)CS[C@H]12)c1csc(N)n1)C(=O)O [compound 16, reference compound]
3.12

I'd like to know its MIC. The compound in question is CON=C(C(=O)NC1C(=O)N2C(C(=O)O)=C(CSc3nc(C(=O)O)c(-c4ccc(O)c(O)c4)s3)CSC12)c1csc(N)n1 (stereo not shown)
0.1

Fill in: MIC of CC(C)(O/N=C(\C(=O)N[C@@H]1C(=O)N2C(C(=O)O)=C(CSc3ncc(-c4ccc(O)cc4)o3)CS[C@H]12)c1csc(N)n1)C(=O)O [compound 24, reference compound] is ___
12.5

May I ask what MIC has been recorded for Nc1nc(C(=NOCc2ccccc2)C(=O)NC2C(=O)N3C(C(=O)O)=C(CSc4nc(C(=O)O)c(-c5ccc(O)c(O)c5)s4)CSC23)cs1 (stereo not shown) ?
0.1

Query (compound): "CCO/N=C(\C(=O)N[C@@H]1C(=O)N2C(C(=O)O)=C(CSc3ncc(-c4ccc(OC(C)=O)c(OC(C)=O)c4)o3)CS[C@H]12)c1csc(N)n1" ; field requested: MIC
0.1

Consider the compound shown here: C=CCON=C(C(=O)NC1C(=O)N2C(C(=O)O)=C(CSc3nc(C(=O)O)c(-c4ccc(O)c(O)c4)s3)CSC12)c1csc(N)n1 (stereo not shown) What is its recorded MIC?
0.1

I am curious: what MIC value has been reported for Nc1nc(/C(=N/OC(C(=O)O)c2ccccc2)C(=O)N[C@@H]2C(=O)N3C(C(=O)O)=C(CSc4nnc(-c5ccc(O)c(O)c5)o4)CS[C@H]23)cs1 (single isomer, unassigned) [Example 24 DA] ?
0.0125

Which MIC reading was recorded for the compound Nc1nc(C(=NOC2CCCC2)C(=O)NC2C(=O)N3C(C(=O)O)=C(CSc4nc(C(=O)O)c(-c5ccc(O)c(O)c5)s4)CSC23)cs1 (stereo not shown) ?
0.1

// query MIC value for entry "Nc1nc(/C(=N/OC2(C(=O)O)CC2)C(=O)N[C@@H]2C(=O)N3C(C(=O)O)=C(CSc4nnc(-c5ccc(O)c(O)c5)s4)CS[C@H]23)cs1"
0.0125

Value lookup for MIC; key = "CC(C)(O/N=C(\C(=O)N[C@@H]1C(=O)N2C(C(=O)O)=C(CSc3nnc(-c4ccc(O)c(O)c4)s3)CS[C@H]12)c1csc(N)n1)C(=O)O"
0.0125

The values you see were collected from patent US5061794A.
